Provenance of the data: the supplement of paper PMC6555819

Test system: LXRa homodimer (NR concentration 270 nM)
assay-info: PBM binding z-score (relative to random genomic background probes); higher = stronger binding; sequences stand for … in GC…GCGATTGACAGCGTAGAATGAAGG
measure-name: PBM binding z-score

{"residue-string": "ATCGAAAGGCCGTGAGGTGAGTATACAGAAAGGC", "target-system": "LXRa homodimer (NR concentration 270 nM)", "readout-value": -0.0346}
{"residue-string": "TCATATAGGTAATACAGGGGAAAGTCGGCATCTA", "target-system": "LXRa homodimer (NR concentration 270 nM)", "readout-value": 0.263}
{"residue-string": "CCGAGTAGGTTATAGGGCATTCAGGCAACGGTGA", "target-system": "LXRa homodimer (NR concentration 270 nM)", "readout-value": 0.388}
{"residue-string": "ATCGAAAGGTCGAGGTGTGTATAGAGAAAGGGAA", "target-system": "LXRa homodimer (NR concentration 270 nM)", "readout-value": 0.47}
{"residue-string": "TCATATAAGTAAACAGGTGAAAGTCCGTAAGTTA", "target-system": "LXRa homodimer (NR concentration 270 nM)", "readout-value": 0.422}
{"residue-string": "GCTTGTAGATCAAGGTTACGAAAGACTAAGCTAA", "target-system": "LXRa homodimer (NR concentration 270 nM)", "readout-value": -0.347}
{"residue-string": "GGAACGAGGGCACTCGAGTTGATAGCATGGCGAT", "target-system": "LXRa homodimer (NR concentration 270 nM)", "readout-value": -0.535}
{"residue-string": "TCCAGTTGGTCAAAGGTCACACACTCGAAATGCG", "target-system": "LXRa homodimer (NR concentration 270 nM)", "readout-value": 3.85}
{"residue-string": "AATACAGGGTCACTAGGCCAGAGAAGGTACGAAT", "target-system": "LXRa homodimer (NR concentration 270 nM)", "readout-value": 1.01}
{"residue-string": "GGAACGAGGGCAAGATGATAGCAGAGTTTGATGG", "target-system": "LXRa homodimer (NR concentration 270 nM)", "readout-value": -0.287}
{"residue-string": "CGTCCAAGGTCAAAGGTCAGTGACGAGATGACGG", "target-system": "LXRa homodimer (NR concentration 270 nM)", "readout-value": 3.55}
{"residue-string": "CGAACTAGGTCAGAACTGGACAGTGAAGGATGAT", "target-system": "LXRa homodimer (NR concentration 270 nM)", "readout-value": -0.326}
{"residue-string": "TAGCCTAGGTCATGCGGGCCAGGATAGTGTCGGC", "target-system": "LXRa homodimer (NR concentration 270 nM)", "readout-value": 0.218}
{"residue-string": "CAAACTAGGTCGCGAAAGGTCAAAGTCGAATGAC", "target-system": "LXRa homodimer (NR concentration 270 nM)", "readout-value": 5.69}
{"residue-string": "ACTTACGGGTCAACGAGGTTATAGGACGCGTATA", "target-system": "LXRa homodimer (NR concentration 270 nM)", "readout-value": 0.89}
{"residue-string": "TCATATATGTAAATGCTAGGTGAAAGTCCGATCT", "target-system": "LXRa homodimer (NR concentration 270 nM)", "readout-value": 0.273}
{"residue-string": "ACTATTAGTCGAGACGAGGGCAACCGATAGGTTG", "target-system": "LXRa homodimer (NR concentration 270 nM)", "readout-value": -0.369}
{"residue-string": "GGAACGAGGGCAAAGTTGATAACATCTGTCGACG", "target-system": "LXRa homodimer (NR concentration 270 nM)", "readout-value": -0.134}
{"residue-string": "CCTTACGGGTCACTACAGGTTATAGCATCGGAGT", "target-system": "LXRa homodimer (NR concentration 270 nM)", "readout-value": 2.22}
{"residue-string": "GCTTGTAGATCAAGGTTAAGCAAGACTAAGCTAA", "target-system": "LXRa homodimer (NR concentration 270 nM)", "readout-value": -0.624}
{"residue-string": "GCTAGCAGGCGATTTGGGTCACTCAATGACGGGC", "target-system": "LXRa homodimer (NR concentration 270 nM)", "readout-value": -0.513}
{"residue-string": "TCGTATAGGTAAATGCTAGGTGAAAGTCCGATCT", "target-system": "LXRa homodimer (NR concentration 270 nM)", "readout-value": 0.236}
{"residue-string": "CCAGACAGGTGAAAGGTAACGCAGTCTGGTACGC", "target-system": "LXRa homodimer (NR concentration 270 nM)", "readout-value": -0.423}
{"residue-string": "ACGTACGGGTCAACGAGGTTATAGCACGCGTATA", "target-system": "LXRa homodimer (NR concentration 270 nM)", "readout-value": 0.327}
{"residue-string": "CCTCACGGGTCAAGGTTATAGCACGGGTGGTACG", "target-system": "LXRa homodimer (NR concentration 270 nM)", "readout-value": 0.0967}
{"residue-string": "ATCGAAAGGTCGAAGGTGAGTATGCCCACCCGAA", "target-system": "LXRa homodimer (NR concentration 270 nM)", "readout-value": 0.253}
